target: Recombinant human TPH1 (MBP tagged) (Homo sapiens); construct: cloning full length human TPH1 cDNA in to a bacterial pMAL-c5E expression vector; made in house; host or cells: E. coli BL21 (DE3); assay: TPH1 in vitro inhibition assay (kinetic fluorescence); type: biochemical; details: read-out: TPH1 Range (TPH1 inhibition IC50)
Sequence (P17752 whole entry): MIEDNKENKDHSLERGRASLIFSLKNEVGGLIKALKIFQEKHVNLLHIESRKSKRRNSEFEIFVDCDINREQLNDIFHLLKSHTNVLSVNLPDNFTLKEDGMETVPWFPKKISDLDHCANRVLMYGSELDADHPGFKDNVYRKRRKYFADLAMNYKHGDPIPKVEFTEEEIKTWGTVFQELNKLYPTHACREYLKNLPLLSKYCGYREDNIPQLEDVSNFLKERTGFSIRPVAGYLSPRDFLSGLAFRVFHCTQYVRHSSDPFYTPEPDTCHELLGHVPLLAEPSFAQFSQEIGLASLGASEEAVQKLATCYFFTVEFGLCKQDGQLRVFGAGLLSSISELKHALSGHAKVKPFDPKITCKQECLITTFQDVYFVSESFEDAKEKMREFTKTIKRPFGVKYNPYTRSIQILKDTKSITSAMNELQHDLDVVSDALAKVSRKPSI
pIC50: −log10 of the molar value.
Endpoint Label: pIC50

Summary line: Cc1nn(C)c2ccc(-c3ccc([C@@H](Oc4cc(N5CCC6(CC5)CN[C@H](C(=O)O)C6)nc(N)n4)C(F)(F)F)cc3)cc12 [Example 55x] , Recombinant human TPH1 (MBP tagged) (Homo sapiens), reported pIC50 = 6.52 to 7.30

Summary line: Nc1nc(O[C@H](c2ccc(-c3cncnc3)cc2)C(F)(F)F)cc(N2CCC3(CC2)CN[C@H](C(=O)O)C3)n1 [Example 55ay] , Recombinant human TPH1 (MBP tagged) (Homo sapiens), reported pIC50 = 5.52 to 6.52

Summary line: CC(C)Oc1cccc(-c2ccc([C@@H](Oc3cc(N4CCC5(CC4)CN[C@H](C(=O)O)C5)nc(N)n3)C(F)(F)F)cc2)c1 [Example 55av] , Recombinant human TPH1 (MBP tagged) (Homo sapiens), reported pIC50 = 6.52 to 7.30

Summary line: Nc1ccc(-c2cc(Cl)ccc2[C@@H](Oc2cc(N3CCC4(CC3)CNC(C(=O)O)C4)nc(N)n2)C(F)(F)F)cc1 (some centres unmarked) [Example 34h] , Recombinant human TPH1 (MBP tagged) (Homo sapiens), reported pIC50 = 5.52 to 6.52

Summary line: Nc1nc(O[C@H](c2ccc(-c3ccc4c(c3)CCCO4)cc2)C(F)(F)F)cc(N2CCC3(CC2)CN[C@H](C(=O)O)C3)n1 [Example 55dq] , Recombinant human TPH1 (MBP tagged) (Homo sapiens), reported pIC50 = > 7.30

Summary line: Cc1ccn(-c2cc(CN(C)C)ccc2[C@@H](Oc2cc(N3CCC4(CC3)CN[C@H](C(=O)O)C4)nc(N)n2)C(F)(F)F)n1 [Example 26] , Recombinant human TPH1 (MBP tagged) (Homo sapiens), reported pIC50 = 5.00 to 5.52

Summary line: Nc1nc(O[C@H](c2ccc(Cl)cc2-c2ccc([N+](=O)[O-])cc2)C(F)(F)F)cc(N2CCC3(CC2)CNC(C(=O)O)C3)n1 (some centres unmarked) [Example 34g] , Recombinant human TPH1 (MBP tagged) (Homo sapiens), reported pIC50 = 6.52 to 7.30

Summary line: Cc1ccn(-c2ccc(-c3cccc(C(=O)O)c3)cc2[C@@H](Oc2cc(N3CCC4(CC3)CN[C@H](C(=O)O)C4)nc(N)n2)C(F)(F)F)n1 [Example 19f] , Recombinant human TPH1 (MBP tagged) (Homo sapiens), reported pIC50 = > 7.30

Summary line: CCN(CC)C(=O)c1ccc(-c2ccc([C@@H](Oc3cc(N4CCC5(CC4)CN[C@H](C(=O)O)C5)nc(N)n3)C(F)(F)F)cc2)cc1 [Example 55de] , Recombinant human TPH1 (MBP tagged) (Homo sapiens), reported pIC50 = 6.52 to 7.30

Summary line: Nc1nc(O[C@H](c2ccc(-c3ccc4ccccc4c3)cc2)C(F)(F)F)cc(N2CCC3(CC2)CN[C@H](C(=O)O)C3)n1 [Example 55m] , Recombinant human TPH1 (MBP tagged) (Homo sapiens), reported pIC50 = > 7.30

Summary line: CC(=O)NCc1ccc(-c2ccc([C@@H](Oc3cc(N4CCC5(CC4)CN[C@H](C(=O)O)C5)nc(N)n3)C(F)(F)F)c(-n3ccc(C)n3)c2)cc1 [Example 1x] , Recombinant human TPH1 (MBP tagged) (Homo sapiens), reported pIC50 = > 7.30

Summary line: Nc1nc(O[C@H](c2ccc(Cl)cc2-c2cccc3[nH]cnc23)C(F)(F)F)cc(N2CCC3(CC2)CN[C@H](C(=O)O)C3)n1 [Example 34cp] , Recombinant human TPH1 (MBP tagged) (Homo sapiens), reported pIC50 = 6.52 to 7.30

Summary line: Nc1nc(O[C@H](c2ccc(Cl)cc2-c2cc(Cl)cc(Cl)c2)C(F)(F)F)cc(N2CCC3(CC2)CN[C@H](C(=O)O)C3)n1 [Example 34bj] , Recombinant human TPH1 (MBP tagged) (Homo sapiens), reported pIC50 = > 7.30

Summary line: CCCOc1ccc(-c2ccc([C@@H](Oc3cc(N4CCC5(CC4)CN[C@H](C(=O)O)C5)nc(N)n3)C(F)(F)F)c(-n3ccc(C)n3)c2)cc1F [Example 1bz] , Recombinant human TPH1 (MBP tagged) (Homo sapiens), reported pIC50 = > 7.30

Summary line: CCOc1cc(-c2cc(Cl)ccc2[C@@H](Oc2cc(N3CCC4(CC3)CN[C@H](C(=O)O)C4)nc(N)n2)C(F)(F)F)ccc1F [Example 34bp] , Recombinant human TPH1 (MBP tagged) (Homo sapiens), reported pIC50 = > 7.30

Summary line: Cc1cc(C)cc(-c2cc(Cl)ccc2[C@@H](Oc2cc(N3CCC4(CC3)CN[C@H](C(=O)O)C4)nc(N)n2)C(F)(F)F)c1 [Example 34ba] , Recombinant human TPH1 (MBP tagged) (Homo sapiens), reported pIC50 = > 7.30

Summary line: Nc1nc(O[C@H](c2cc(Br)ccc2Br)C(F)(F)F)cc(N2CCC3(CC2)CN[C@H](C(=O)O)C3)n1 [Example 48] , Recombinant human TPH1 (MBP tagged) (Homo sapiens), reported pIC50 = 5.52 to 6.52
